target-system: T1, PAIPP2-PHD finger (Arabidopsis)
T1 chain: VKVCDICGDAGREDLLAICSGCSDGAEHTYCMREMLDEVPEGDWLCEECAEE
measurement-description: ITC
pKd: −log10 of the molar value.
outcome-measure: pKd

* ARTKQTARKSTGGKA (zinc-bound PHD finger; limits from the UniProt ZN_FING feature, construct limits not printed unmodified Lys4; H3 1-15 assumed by convention) [unmodified H3K4 peptide] | 4.73
